- experimentalParameters: 283.15 K; 65000 kPa; Liquid; Vibrating tube method
For each of the compounds below, state its mass density.
The answer is to be given in kg/m3; state only the numeric part.

Query string: Look at this compound and give its reported mass density. CCC(C)(C)C [2,2-dimethylbutane]
Result string: 710.76

Query string: Look at this compound and give its reported mass density. CCC(C)CC [3-methylpentane]
Result string: 721.33

Query string: Look at this compound and give its reported mass density. CC(C)C(C)C [2,3-dimethylbutane]
Result string: 720.09

Query string: Look at this compound and give its reported mass density. CCCC(C)C [2-methylpentane]
Result string: 711.97

###

- experimentalParameters: 283.15 K; 20000 kPa; Liquid; Vibrating tube method
± gives the expanded uncertainty stated by the source.
endpointName: mass density

Query string: Look at this molecule and give its reported mass density. CCC(C)(C)C [2,2-dimethylbutane]
Result string: 678.5 ± 0.5 kg/m3

Query string: Look at this molecule and give its reported mass density. CCCC(C)C [2-methylpentane]
Result string: 680.99 ± 0.49 kg/m3

Query string: Look at this molecule and give its reported mass density. CC(C)C(C)C [2,3-dimethylbutane]
Result string: 689.26 ± 0.49 kg/m3

Query string: Look at this molecule and give its reported mass density. CCC(C)CC [3-methylpentane]
Result string: 691.21 ± 0.49 kg/m3

###

- experimentalParameters: 303.15 K; 100 kPa; Liquid; Vibrating tube method
endpointName: mass density (kg/m3)
The answer is to be given in kg/m3; state only the numeric part.

Query string: Look at this compound and give its reported mass density. CCC(C)(C)C [2,2-dimethylbutane]
Result string: 639.75

Query string: Look at this compound and give its reported mass density. CCCC(C)C [2-methylpentane]
Result string: 643.96

Query string: Look at this compound and give its reported mass density. CC(C)C(C)C [2,3-dimethylbutane]
Result string: 652.31

Query string: Look at this compound and give its reported mass density. CCC(C)CC [3-methylpentane]
Result string: 655.07

###

- experimentalParameters: 308.15 K; 60000 kPa; Liquid; Vibrating tube method
± gives the expanded uncertainty stated by the source.
endpointName: mass density
Answer format: number, then unit.

Query string: Look at this molecule and give its reported mass density. "CCCC(C)C"
Result string: 692.62 ± 0.96 kg/m3

Query string: Look at this molecule and give its reported mass density. "CCC(C)CC"
Result string: 702.1 ± 0.94 kg/m3

Query string: Look at this molecule and give its reported mass density. "CCC(C)(C)C"
Result string: 691.41 ± 0.96 kg/m3

Query string: Look at this molecule and give its reported mass density. "CC(C)C(C)C"
Result string: 700.83 ± 0.94 kg/m3

###

- experimentalParameters: 313.15 K; 50000 kPa; Liquid; Vibrating tube method
For each of the molecules below, state its mass density.
The answer is to be given in kg/m3; state only the numeric part.

Query string: Look at this molecule and give its reported mass density. "CCC(C)CC"
Result string: 692.01

Query string: Look at this molecule and give its reported mass density. "CCC(C)(C)C"
Result string: 680.94

Query string: Look at this molecule and give its reported mass density. "CC(C)C(C)C"
Result string: 690.56

Query string: Look at this molecule and give its reported mass density. "CCCC(C)C"
Result string: 682.68
